protocol-details: Phase 1/2a study pharmacokinetics
Type: in vivo, human
condition-set: human, plasma, oral; 225 mg (n=4); read-out: Mean AUC
measurement-name: AUC (ng·h/mL)
Quick reminder: number only, in ng·h/mL, skip the unit.

Query block: Give a short answer stating reported AUC for CC1(C)CCC(c2ccc(Cl)cc2)=C(CN2CCN(c3ccc(C(=O)NS(=O)(=O)c4ccc(N[C@H](CCN5CCOCC5)CSc5ccccc5)c(S(=O)(=O)C(F)(F)F)c4)cc3)CC2)C1 .
Result block: 47000

====

protocol-details: Phase 1/2a study pharmacokinetics
Format: in vivo, human
condition-set: human, in vivo; preclinical target; read-out: Preclinical target AUC
measurement-name: AUC

Query block: State, in one line, measured AUC of CC1(C)CCC(c2ccc(Cl)cc2)=C(CN2CCN(c3ccc(C(=O)NS(=O)(=O)c4ccc(N[C@H](CCN5CCOCC5)CSc5ccccc5)c(S(=O)(=O)C(F)(F)F)c4)cc3)CC2)C1
Result block: 53000 to 88000 ng·h/mL

====

protocol-details: dog toxicity studies
Assay type: in vivo
condition-set: dog, in vivo; 4 weeks of administration to dogs
measurement-name: NOAEL at 4 weeks (mg/kg/day)
Note: unit mg/kg/day is implicit; provide only the numeric part.

Query block: Supply measured NOAEL at 4 weeks of CC1(C)CCC(c2ccc(Cl)cc2)=C(CN2CCN(c3ccc(C(=O)NS(=O)(=O)c4ccc(N[C@H](CCN5CCOCC5)CSc5ccccc5)c(S(=O)(=O)C(F)(F)F)c4)cc3)CC2)C1 in your reply.
Result block: 1

====

Target protein (sequence): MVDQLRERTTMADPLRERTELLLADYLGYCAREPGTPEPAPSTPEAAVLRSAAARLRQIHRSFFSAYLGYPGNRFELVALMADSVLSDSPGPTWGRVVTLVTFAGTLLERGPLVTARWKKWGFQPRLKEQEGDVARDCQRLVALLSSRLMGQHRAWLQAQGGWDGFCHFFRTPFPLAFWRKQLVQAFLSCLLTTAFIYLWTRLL
pKi: −log10 of the molar value.
measurement-name: pKi

Query block: State its pKi for this compound: CC1(C)CCC(c2ccc(Cl)cc2)=C(CN2CCN(c3ccc(C(=O)NS(=O)(=O)c4ccc(N[C@H](CCN5CCOCC5)CSc5ccccc5)c(S(=O)(=O)C(F)(F)F)c4)cc3)CC2)C1
Result block: ≥ 9.00

====

protocol-details: Phase 1/2a study pharmacokinetics
Format: in vivo, human
condition-set: plasma, oral; human subjects
measurement-name: half-life

Query block: Answer with the recorded half-life of CC1(C)CCC(c2ccc(Cl)cc2)=C(CN2CCN(c3ccc(C(=O)NS(=O)(=O)c4ccc(N[C@H](CCN5CCOCC5)CSc5ccccc5)c(S(=O)(=O)C(F)(F)F)c4)cc3)CC2)C1 [ABT-263] only.
Result block: 840 to 1200 min

====

protocol-details: oral bioavailability from prototype formulations in dog
Format: in vivo
condition-set: beagle, plasma, prototype solid dispersion and lipid-based formulations
measurement-name: bioavailability

Query block: Look up and state reported bioavailability for CC1(C)CCC(c2ccc(Cl)cc2)=C(CN2CCN(c3ccc(C(=O)NS(=O)(=O)c4ccc(N[C@H](CCN5CCOCC5)CSc5ccccc5)c(S(=O)(=O)C(F)(F)F)c4)cc3)CC2)C1 [ABT-263]
Result block: 30 to 50%

====

Tested on: human tumor cell lines derived from small cell lung carcinomas and lymphoid malignancies
protocol-details: mechanism-based cytotoxicity in tumor cell lines
pEC50: −log10 of the molar value.
measurement-name: pEC50

Query block: Please report the measured pEC50 for CC1(C)CCC(c2ccc(Cl)cc2)=C(CN2CCN(c3ccc(C(=O)NS(=O)(=O)c4ccc(N[C@H](CCN5CCOCC5)CSc5ccccc5)c(S(=O)(=O)C(F)(F)F)c4)cc3)CC2)C1
Result block: ≥ 6.00

====

protocol-details: Phase 1/2a study pharmacokinetics
Format: in vivo, human
condition-set: human, plasma, oral; 315 mg (n=5); read-out: Mean AUC
Description: There was no drug administered for the 72 hours following the first dose of the first cycle (Day-3) in order to assess the single-dose pharmacokinetics and toxicity. Additional blood samples were collected at 0 hour (pre dose) on Day 14, Cycle 2 through Cycle 6. Sufficient blood were collected to provide approximately 1 mL plasma from each sample. […] Additional parameters may be calculated if useful in the interpretation of the data. […]
measurement-name: AUC (ng·h/mL)
Respond with the bare value in ng·h/mL.

Query block: State its AUC: CC1(C)CCC(c2ccc(Cl)cc2)=C(CN2CCN(c3ccc(C(=O)NS(=O)(=O)c4ccc(N[C@H](CCN5CCOCC5)CSc5ccccc5)c(S(=O)(=O)C(F)(F)F)c4)cc3)CC2)C1
Result block: 100000
